Molecular target: human GLP-1 receptor (hGLP-1R) (human, UniProt P43220 24-463)
Experiment: cell-based or functional assay
Starred links: 1 amine or outer side, 2 acyl side, 3 side chain; linkers in the order of their positions; H or OH if unused. Non-standard residues stand in square brackets, D forms with d. Groups on a side chain read outwards from the residue. No end group written: not given here. *: point of attachment. C20 diacid = O=C(O)CCCCCCCCCCCCCCCCCCC(=O)*; C18 diacid = O=C(O)CCCCCCCCCCCCCCCCC(=O)*; γGlu = O=C(O)[C@H](CCC(=O)[*:2])N[*:1]; αMeF = C[C@](N)(Cc1ccccc1)C(=O)O; AEEA = NCCOCCOCC(=O)O; Aib = CC(C)(N)C(=O)O
measurement kind: hGLP-1R EC50 (pM)

binder	reading
H[Aib]QGTFTSDVSK[αMeF]LDTKRARDFVQWLLE[Aib]G-OH (not fully specified (residue 17)) [Peptide 520]	543 pM
H[Aib]QGTFTSDVSK[αMeF]LDSK([γGlu-γGlu-AEEA-AEEA-γGlu-γGlu-C20 diacid])RAQDFVRWLLE[Aib]G-OH [Peptide 139]	630 pM
H[Aib]QGTFTSDVSK[αMeF]LDTK([AEEA-AEEA-γGlu-C18 diacid])RAQDFVQWLL[Aib]E-OH [Peptide 483]	178 pM
H[Aib]QGTFTSDVSK[αMeF]LDTK([AEEA-AEEA-γGlu-C20 diacid])RAQDFVRWLLE[Aib]K-OH [Peptide 503]	81.2 pM
H[Aib]QGTFTSDVSK[αMeF]LDRK([AEEA-AEEA-γGlu-C20 diacid])RARDFVQWLL[Aib]E-NH2 [Peptide 471]	102 pM
H[Aib]QGTFTSDVSK[αMeF]LDKK([AEEA-AEEA-γGlu-C20 diacid])RAQDFVRWLLAE-NH2 [Peptide 460]	117 pM
H[Aib]QGTFTSDVSK[αMeF]LDKK([AEEA-AEEA-γGlu-C18 diacid])RAQDFVRWLLA (not fully specified (C-terminus)) [Peptide 459]	32.7 pM
H[Aib]QGTFTSDVSK[αMeF]LDKK([AEEA-AEEA-γGlu-C20 diacid])RAQDFVRWLLE[Aib]G-NH2 [Peptide 453]	170 pM
H[Aib]QGTFTSDVSK[αMeF]LETK([AEEA-AEEA-γGlu-C18 diacid])RARDFVQWLLE[Aib]G-OH [Peptide 445]	33 pM
H[Aib]QGTFTSDVSK[αMeF]LDTK([AEEA-AEEA-γGlu-γGlu-C18 diacid])RARDFVQWLLE[Aib]G (not fully specified (C-terminus)) [Peptide 428]	33.1 pM
